- tested-system: DLG5_1, Q8TDM6
- Sequence (Q8TDM6 617-713): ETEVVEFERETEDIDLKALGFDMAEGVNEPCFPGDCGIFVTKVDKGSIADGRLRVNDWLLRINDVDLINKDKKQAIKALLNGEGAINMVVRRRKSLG
- measurement-protocol: holdup assay
- Parameters: key: below the threshold = too weak to quantify, mostly under pKd 3.1 to 4
- applied-conditions: plain residues with an end cap or a label only (N-terminal biotin on a linker: ado-ado)

binder | pKd
EDPRVEVTQF [SLC22A9, Q8IVM8] | below the threshold
TRKRSGEAAV [PFKM, P08237] | below the threshold
RDPPAEWTRV [PTPN18, Q99952] | below the threshold
PTPDLPQTRV [KLHDC7A, Q5VTJ3] | below the threshold

Taken from paper PMC9482650.
